Test: Viability qHTS for spleen associated tyrosine kinase inhibitor (SYKi) naive MV4-11 cells (AID 1963823); further: nearly all actives have a fitted effect of over 40% in size
Details: MV4-11 AML viability, CellTiter-Glo luminescence, 72 h; series mostly up to 45 µM
Results filed as inconclusive are left out. Activity calls are given as the source filed them. The call rests on the fitted dose curve; in most records, active means well fitted cell-killing curve with a large enough effect; inconclusive means small, poorly fitted or top-dose-only effect, or effect the other way; inactive means no such curve, though single readings can be large or run the other way.
Outcomes: class 1 = active, class 0 = inactive

# molecule, class
measured = [
    ("O=C(Nc1ncc(SCCN2CCCC2)s1)[C@]1(c2ccc(S(=O)(=O)C3CC3)cc2)C[C@H]1C1CCCCC1", "class 1"),
    ("CCCC(Nc1nc(-c2ccc(NC(=O)NCC)c(OC)c2)ncc1C)c1cccnc1 (stereo not given)", "class 1"),
    ("CC1Cc2ccccc2N1NC(=O)c1ccc(Cl)c(S(N)(=O)=O)c1 (stereo not given)", "class 0"),
    ("O=C(O)C1CCC1", "class 0"),
    ("C/C=C(/C=C(C)/C=C/C=C/C=C(\\C)C(=O)C12OC1C(O)(CCO)NC2=O)C(=O)OC (stereo not given)", "class 1"),
]

----------
Test: Quantitative highthroughput screen to assess conditional lethalithy of SEM cells grown in Human Plasma-Like Medium with dialyzed fetal bovine serum (HPLM+ds) (AID 1963882); further: nearly all actives have a fitted effect of over 35% in size
Details: SEM B-ALL cells in HPLM+ds, CellTiter-Glo viability, 48 h; series mostly up to 45.8 µM
Experimental: Assay Provider: Jason Cantor Ph.D. Department of Biochemistry University of Wisconsin-Madison, Madison, WI, USA Chemical screening studies have identified drug sensitivities across hundreds of cancer cell lines but most putative therapeutics fail to translate. […] Sets of conditional anticancer compounds spanned phases of clinical development and included non-oncology drugs were assessed. […] 6; Detection; Luminescence, Viewlux PerkinElmer. […]
Records with an inconclusive call do not appear. The source made the active and inactive calls. Calls come from the whole dose curve; as a rule, active = well fitted cell-killing curve with a large enough effect; inconclusive = small, poorly fitted or top-dose-only effect, or effect the other way; inactive = no such curve, though single readings can be large or run the other way.
Outcome codes: active, inactive

# molecule_smiles, class
data = [
    ("Cc1cccc(-c2[nH]c(C(C)(C)C)nc2-c2ccc3nccnc3c2)n1", "active"),
    ("CC[N+](CC)(CC)CCOc1cccc(OCC[N+](CC)(CC)CC)c1OCC[N+](CC)(CC)CC", "inactive"),
    ("CCOc1ccc(Cc2cc([C@@H]3O[C@H](CO)[C@@H](O)[C@H](O)[C@@H]3O)ccc2Cl)cc1", "inactive"),
    ("COc1cc2ncn(-c3cc(OCc4ccccc4S(C)(=O)=O)c(C#N)s3)c2cc1OC", "inactive"),
    ("CC(C=CC1=C(C)CCCC1(C)C)=CC=CC(C)=CC(=O)O", "inactive"),
    ("CC(C)(Sc1ccc(CCN(CCCCC2CCCCC2)C(=O)NC2CCCCC2)cc1)C(=O)O", "inactive"),
    ("CC1=NN(c2ccccc2)C(=O)C1", "inactive"),
    ("CNC(=O)[C@H](Cc1ccccc1)NC(=O)[C@H](CC(C)C)[C@H](CSc1cccs1)C(=O)NO", "active"),
    ("Cc1ccc(C(=O)N(CCCN)[C@@H](c2oc3cc(Cl)ccc3c(=O)c2Cc2ccccc2)C(C)C)cc1", "inactive"),
]

----------
Assay: Quantitative highthroughput screen to assess conditional lethalithy of SEM cells grown in Human Plasma-Like Medium with dialyzed fetal bovine serum (HPLM+ds) (AID 1963882); further: nearly all actives have a fitted effect of over 35% in size
Details: SEM B-ALL cells in HPLM+ds, CellTiter-Glo viability, 48 h; series mostly up to 45.8 µM
Records with an inconclusive call do not appear. Calls of active or inactive are those of the source. Calls come from the whole dose curve; as a rule, active = well fitted cell-killing curve with a large enough effect; inconclusive = small, poorly fitted or top-dose-only effect, or effect the other way; inactive = no such curve, though single readings can be large or run the other way.
Classes used: YES (active), NO (inactive)

# molecule, class
data = [
    ("Clc1ccc(COC(Cn2ccnc2)c2ccc(Cl)cc2Cl)cc1 (configuration not stated)", "NO"),
    ("CC(C)Nc1cc(-c2c[nH]c(C(=O)N[C@H](CO)c3cccc(Cl)c3)c2)c(Cl)cn1", "YES"),
    ("Cc1csc(NC(=O)c2sc3nc4c(c(C(F)(F)F)c3c2N)CCC4)n1", "NO"),
    ("O=C1NC(=O)C(=Cc2ccc3nccc(-c4ccncc4)c3c2)S1", "YES"),
    ("C=C1c2cccc(O)c2C(O)=C2C(=O)[C@@]3(O)C(O)=C(C(N)=O)C(=O)[C@@H](N(C)C)[C@@H]3[C@@H](O)[C@H]12", "NO"),
    ("C[C@]12CC[C@H](O)CC1=CCC1C2CC[C@]2(C)C(n3cnc4ccccc43)=CCC12 (some centres not stated)", "NO"),
    ("Cc1cn(CCN2CCN(c3ccccc3-c3cc(C#N)cc(C(=O)NCCCN4CCCC4)c3)CC2)c2ccccc12", "YES"),
    ("CC(Cc1ccc(O)c(O)c1)(NN)C(=O)O (configuration not stated)", "NO"),
    ("Cc1c(C)n(Cc2ccc(-c3ccccc3C(=O)O)cc2)c2ccc(C(=O)N[C@@H](C)c3ccc([N+](=O)[O-])cc3)cc12", "NO"),
    ("NC(CO)C(=O)NNCc1ccc(O)c(O)c1O (configuration not stated)", "NO"),
    ("N#CC(c1ccnc(NCCc2cccnc2)n1)c1nc2ccccc2s1 (configuration not stated)", "NO"),
    ("CON=C(C(=O)N[C@@H]1C(=O)N2C(C(=O)O)=C(CSC(=O)c3ccco3)CS[C@H]12)c1csc(N)n1", "NO"),
    ("CC(C)(C)OC(=O)Nc1ccc(-c2cc(C(=O)NCCCCCCC(=O)NO)no2)cc1", "YES"),
    ("CN(C)c1nc(Cc2ccc(NC(=O)c3ccc(C(F)(F)F)cc3)cc2)nc(N(C)C)c1CC(=O)O", "NO"),
    ("CCn1cc(-c2ccnc3[nH]c(-c4cccc(CN(C)C)c4)cc23)c(-c2ccc(NC(=O)N(C)C)cc2)n1", "YES"),
    ("Nc1ccccc1NC(=O)c1ccc(CNC(=O)OCc2cccnc2)cc1", "YES"),
    ("O=c1oc2c(O)c(O)cc3c(=O)oc4c(O)c(O)cc1c4c23", "NO"),
    ("C=Cc1c(C)c2cc3nc(cc4[nH]c(cc5nc(cc1[nH]2)C(C)=C5CCC(=O)O)c(CCC(=O)OC)c4C)[C@@]1(C)C3=CC=C(C(=O)OC)[C@H]1C(=O)OC", "NO"),
    ("CCCCCOC(=O)Nc1nc(=O)n([C@@H]2O[C@H](C)[C@@H](O)C2O)cc1F (some centres not stated)", "NO"),
    ("CCS(=O)(=O)c1cccc(-c2cc(C(=O)NC3CCN(C)CC3)c(C)c3[nH]c4ncc(C)cc4c23)c1", "YES"),
    ("Cc1ccnc2c1NC(=O)c1cccnc1N2C1CC1", "NO"),
    ("N#Cc1c(NC(=O)c2cccc3ccccc23)sc2c1CCCC2", "YES"),
    ("CC(CCc1ccc(O)cc1)NCCc1ccc(O)c(O)c1 (configuration not stated)", "YES"),
    ("CC1=C(C(=O)O)N2C(=O)[C@@H](NC(=O)[C@H](N)C3=CCC=CC3)[C@H]2SC1", "NO"),
    ("Cc1cc(Nc2cc(N3CCN(C)CC3)nc(C=Cc3ccccc3)n2)n[nH]1", "YES"),
    ("CO[C@@H]1[C@@H](OC(N)=O)[C@@H](O)[C@H](Oc2ccc3c(O)c(NC(=O)c4ccc(O)c(CC=C(C)C)c4)c(=O)oc3c2C)OC1(C)C", "NO"),
    ("COc1cccc2c(NCc3ccccc3)nc(-n3c(N)nc4ccccc43)nc12", "YES"),
    ("NNC(=O)c1ccncc1", "NO"),
    ("NC(=O)c1nnn(Cc2cc(Cl)c(C(=O)c3ccc(Cl)cc3)c(Cl)c2)c1N", "NO"),
    ("COC1=C(OC)C(=O)C(CCCCCCCCCCO)=C(C)C1=O", "NO"),
    ("CC(C)OC(=O)C1=CN(C(=O)c2ccc(F)c(F)c2)CC(C)(C)c2c1[nH]c1ccccc21", "NO"),
    ("O=C(Nc1ccccc1Br)N[C@@H]1CCN(c2ccc(C(F)(F)F)cn2)C1", "NO"),
    ("CN1CCc2c(c3ccccc3n2Cc2ccc(C(=O)NO)cc2)C1", "YES"),
    ("C[C@@H]1[C@H](O)[C@@H](C)C=CC=CC=CC=CC=CC=CC=C[C@H](O[C@@H]2O[C@H](C)[C@H](O)[C@H](N)[C@@H]2O)C[C@@H]2O[C@](O)(C[C@@H](O)C[C@@H](O)[C@H](O)CC[C@@H](O)C[C@@H](O)CC(=O)O[C@H]1C)C[C@H](O)[C@@H]2C(=O)O", "NO"),
    ("CC(=O)Oc1ccccc1C(=O)O", "NO"),
    ("COc1ccc2[nH]cc(CCNC(C)=O)c2c1", "NO"),
    ("C[C@@H]1[C@H](C)CC[C@]2(C(=O)O)CC[C@]3(C)C(=CC[C@@H]4[C@@]5(C)CC[C@H](O)C(C)(C)[C@H]5CC[C@]43C)[C@@H]12", "NO"),
]
